Sourced from PubChem BioAssay AID1963431

- Test system: Rh18 complex spheroid viability, percent test/control
- measurement-notes: Anticancer human tumor Rh18 cell line growth inhibition [Asc]; active = viability on the fitted dose curve at most 10% of control; inactive = the rest;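 note: spheroids exposed to compound for 7 days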
- test-conditions: second compound 1 µM; first compound 0.01 µM
The reply should be one of these categories: active, inactive

Dear colleague, could you share the recorded outcome for O=C(c1ccc(F)c(F)c1Nc1ccc(I)cc1F)N1CC(O)([C@@H]2CCCCN2)C1 + CNC(C)C(=O)NC1CN(S(=O)(=O)c2cccc(S(=O)(=O)N3CCC4CCC(C(=O)NC(c5ccccc5)c5ccccc5)N4C(=O)C(NC(=O)C(C)NC)C3)c2)CCC2CCC(C(=O)NC(c3ccccc3)c3ccccc3)N2C1=O when you have a moment?
inactive

Dear colleague, could you share the recorded outcome for CCN1CCN(Cc2ccc(Nc3ncc(F)c(-c4cc(F)c5nc(C)n(C(C)C)c5c4)n3)nc2)CC1 + Cc1c(S(C)(=O)=O)c(-c2cc(F)cc(N3CCN(c4ccc(NS(=O)(=O)c5ccc(NC(CCN6CCC(C(=O)OCCCP(=O)(O)O)CC6)CSc6ccccc6)c(S(=O)(=O)C(F)(F)F)c5)cc4)CC3)c2)c(-c2ccc(Cl)cc2)n1C(C)C when you have a moment?
active

Dear colleague, could you share the recorded outcome for COc1c(OCCCN2CCOCC2)ccc2c3n(c(=NC(=O)c4cnc(N)nc4)nc12)CCN3 + CNC(C)C(=O)NC1CN(S(=O)(=O)c2cccc(S(=O)(=O)N3CCC4CCC(C(=O)NC(c5ccccc5)c5ccccc5)N4C(=O)C(NC(=O)C(C)NC)C3)c2)CCC2CCC(C(=O)NC(c3ccccc3)c3ccccc3)N2C1=O when you have a moment?
inactive

----------
- Test system: Rh18 complex spheroid viability, percent test/control
- measurement-notes: Anticancer human tumor Rh18 cell line growth inhibition [Asc];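 note: spheroids exposed to compound for 7 days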
- test-conditions: second compound 0.1 µM; first compound 0.00316 µM; active compounds read low
Param label: returns y when viability, T/C < 30%, returns n otherwise, including exact equality.

Hi there! Is viability, T/C for COc1c(OCCCN2CCOCC2)ccc2c3n(c(=NC(=O)c4cnc(N)nc4)nc12)CCN3 + CNC(C)C(=O)NC1CN(S(=O)(=O)c2cccc(S(=O)(=O)N3CCC4CCC(C(=O)NC(c5ccccc5)c5ccccc5)N4C(=O)C(NC(=O)C(C)NC)C3)c2)CCC2CCC(C(=O)NC(c3ccccc3)c3ccccc3)N2C1=O below 30%, do you know?
n

Hi there! Is viability, T/C for O=C(c1ccc(F)c(F)c1Nc1ccc(I)cc1F)N1CC(O)([C@@H]2CCCCN2)C1 + CNC(C)C(=O)NC1CN(S(=O)(=O)c2cccc(S(=O)(=O)N3CCC4CCC(C(=O)NC(c5ccccc5)c5ccccc5)N4C(=O)C(NC(=O)C(C)NC)C3)c2)CCC2CCC(C(=O)NC(c3ccccc3)c3ccccc3)N2C1=O below 30%, do you know?
n

Hi there! Is viability, T/C for O=C(c1ccc(F)c(F)c1Nc1ccc(I)cc1F)N1CC(O)([C@@H]2CCCCN2)C1 + Cc1c(S(C)(=O)=O)c(-c2cc(F)cc(N3CCN(c4ccc(NS(=O)(=O)c5ccc(NC(CCN6CCC(C(=O)OCCCP(=O)(O)O)CC6)CSc6ccccc6)c(S(=O)(=O)C(F)(F)F)c5)cc4)CC3)c2)c(-c2ccc(Cl)cc2)n1C(C)C below 30%, do you know?
y

Hi there! Is viability, T/C for CCN1CCN(Cc2ccc(Nc3ncc(F)c(-c4cc(F)c5nc(C)n(C(C)C)c5c4)n3)nc2)CC1 + Cc1c(S(C)(=O)=O)c(-c2cc(F)cc(N3CCN(c4ccc(NS(=O)(=O)c5ccc(NC(CCN6CCC(C(=O)OCCCP(=O)(O)O)CC6)CSc6ccccc6)c(S(=O)(=O)C(F)(F)F)c5)cc4)CC3)c2)c(-c2ccc(Cl)cc2)n1C(C)C below 30%, do you know?
y

Hi there! Is viability, T/C for CCN1CCN(Cc2ccc(Nc3ncc(F)c(-c4cc(F)c5nc(C)n(C(C)C)c5c4)n3)nc2)CC1 + CNC(C)C(=O)NC1CN(S(=O)(=O)c2cccc(S(=O)(=O)N3CCC4CCC(C(=O)NC(c5ccccc5)c5ccccc5)N4C(=O)C(NC(=O)C(C)NC)C3)c2)CCC2CCC(C(=O)NC(c3ccccc3)c3ccccc3)N2C1=O below 30%, do you know?
n

Hi there! Is viability, T/C for CNC(C)C(=O)NC1CN(S(=O)(=O)c2cccc(S(=O)(=O)N3CCC4CCC(C(=O)NC(c5ccccc5)c5ccccc5)N4C(=O)C(NC(=O)C(C)NC)C3)c2)CCC2CCC(C(=O)NC(c3ccccc3)c3ccccc3)N2C1=O (stereo unspecified) + Cc1c(S(C)(=O)=O)c(-c2cc(F)cc(N3CCN(c4ccc(NS(=O)(=O)c5ccc(NC(CCN6CCC(C(=O)OCCCP(=O)(O)O)CC6)CSc6ccccc6)c(S(=O)(=O)C(F)(F)F)c5)cc4)CC3)c2)c(-c2ccc(Cl)cc2)n1C(C)C below 30%, do you know?
y

Hi there! Is viability, T/C for Cn1ncnc1[C@H]1c2n[nH]c(=O)c3cc(F)cc(c23)N[C@@H]1c1ccc(F)cc1 + CNC(C)C(=O)NC1CN(S(=O)(=O)c2cccc(S(=O)(=O)N3CCC4CCC(C(=O)NC(c5ccccc5)c5ccccc5)N4C(=O)C(NC(=O)C(C)NC)C3)c2)CCC2CCC(C(=O)NC(c3ccccc3)c3ccccc3)N2C1=O below 30%, do you know?
n

Hi there! Is viability, T/C for NC1CCC(NC2CC2c2ccccc2)CC1 (stereo unspecified) + CNC(C)C(=O)NC1CN(S(=O)(=O)c2cccc(S(=O)(=O)N3CCC4CCC(C(=O)NC(c5ccccc5)c5ccccc5)N4C(=O)C(NC(=O)C(C)NC)C3)c2)CCC2CCC(C(=O)NC(c3ccccc3)c3ccccc3)N2C1=O below 30%, do you know?
n

Hi there! Is viability, T/C for COc1c(OCCCN2CCOCC2)ccc2c3n(c(=NC(=O)c4cnc(N)nc4)nc12)CCN3 + Cc1c(S(C)(=O)=O)c(-c2cc(F)cc(N3CCN(c4ccc(NS(=O)(=O)c5ccc(NC(CCN6CCC(C(=O)OCCCP(=O)(O)O)CC6)CSc6ccccc6)c(S(=O)(=O)C(F)(F)F)c5)cc4)CC3)c2)c(-c2ccc(Cl)cc2)n1C(C)C below 30%, do you know?
y

Hi there! Is viability, T/C for Cn1ncnc1[C@H]1c2n[nH]c(=O)c3cc(F)cc(c23)N[C@@H]1c1ccc(F)cc1 + Cc1c(S(C)(=O)=O)c(-c2cc(F)cc(N3CCN(c4ccc(NS(=O)(=O)c5ccc(NC(CCN6CCC(C(=O)OCCCP(=O)(O)O)CC6)CSc6ccccc6)c(S(=O)(=O)C(F)(F)F)c5)cc4)CC3)c2)c(-c2ccc(Cl)cc2)n1C(C)C below 30%, do you know?
y

Hi there! Is viability, T/C for NC1CCC(NC2CC2c2ccccc2)CC1 (stereo unspecified) + Cc1c(S(C)(=O)=O)c(-c2cc(F)cc(N3CCN(c4ccc(NS(=O)(=O)c5ccc(NC(CCN6CCC(C(=O)OCCCP(=O)(O)O)CC6)CSc6ccccc6)c(S(=O)(=O)C(F)(F)F)c5)cc4)CC3)c2)c(-c2ccc(Cl)cc2)n1C(C)C below 30%, do you know?
y
